assay-protocol: Cell viability by CellTiter-Glo 2.0 (intracellular ATP) in HepG2.117 cells
Type: cell-based
experimental-parameters: human, CellTiter-Glo 2.0, 3 days incubation
A collection of compounds and their measured CC50 at 3 days

1. CNC(=O)c1ccc(-n2c(-n3ccc(C4CC4)n3)nc3c(c2=O)C[C@@H](C)N(C(=O)c2ccc(Br)c(C(F)(F)F)c2)C3)cc1 [Compound 10] : > 50 µM
2. CNC(=O)c1ccc(-n2c(-n3ccc(CC(C)C)n3)nc3c(c2=O)C[C@@H](C)N(C(=O)c2ccc(Br)c(C(F)(F)F)c2)C3)cc1 [Compound 14] : > 50 µM

Lab book: CC50 at 3 days of CNC(=O)c1ccc(-n2c(-c3cccc(C(C)C)n3)nc3c(c2=O)C[C@@H](C)N(C(=O)c2ccc(Br)c(C(F)(F)F)c2)C3)cc1 [Compound 8] noted as 30 µM
